experimental-protocol: Phase 1 food-effect crossover study: plasma PK after single 300 mg oral dose
Format: in vivo, human
test-parameters: human, plasma, po, 300 mg, Treatment B: high-fat nondairy meal 4 h before dosing, read-out: AUC0-t, Geometric LS Mean
experimental-endpoint: AUC(0-t) (ng·h/mL)
The figure you give is taken to be in ng·h/mL; do not add the unit.

Recorded AUC(0-t) (molecule CN(C)c1cc(CNCC(C)(C)C)c(O)c2c1C[C@H]1C[C@H]3[C@H](N(C)C)C(O)=C(C(N)=O)C(=O)[C@@]3(O)C(O)=C1C2=O ): 6200

----------
experimental-protocol: Phase 1 multiple oral dose study: urine pharmacokinetics
Assay type: in vivo, human
test-parameters: human, urine, oral, all omadacycline dose groups; Day 5; read-out: Renal clearance (CLr)
experimental-endpoint: CL renal

The molecule identified as CN(C)c1cc(CNCC(C)(C)C)c(O)c2c1C[C@H]1C[C@H]3[C@H](N(C)C)C(O)=C(C(N)=O)C(=O)[C@@]3(O)C(O)=C1C2=O [Omadacycline] registered its CL renal at 40 to 55 mL/min

----------
experimental-protocol: Phase 1 multiple oral dose (300, 450, 600 mg once daily x 5 days) crossover study: plasma pharmacokinetics
test-parameters: human, in vivo, mean half-life in plasma (T1/2), across the 3 tested dose levels; Day 5
experimental-endpoint: half-life

For reference, reported half-life for CN(C)c1cc(CNCC(C)(C)C)c(O)c2c1C[C@H]1C[C@H]3[C@H](N(C)C)C(O)=C(C(N)=O)C(=O)[C@@]3(O)C(O)=C1C2=O stands at ~16 h

----------
experimental-protocol: Phase 1 food-effect crossover study: plasma PK after single 300 mg oral dose
Type: in vivo, human
test-parameters: human, plasma, po, 300 mg, across all treatment periods, read-out: median Tmax
experimental-endpoint: Tmax

Lab book: Tmax of CN(C)c1cc(CNCC(C)(C)C)c(O)c2c1C[C@H]1C[C@H]3[C@H](N(C)C)C(O)=C(C(N)=O)C(=O)[C@@]3(O)C(O)=C1C2=O noted as 2.5 to 2.9 h

----------
experimental-protocol: Phase 1 multiple oral dose study: urine pharmacokinetics
Format: in vivo, human
test-parameters: human, in vivo, 300 mg; Day 1 (n = 2); read-out: CLr, Mean (CV) (converted)
experimental-endpoint: CL renal (mL/min)
Return type: number; implicit unit mL/min.

The molecule CN(C)c1cc(CNCC(C)(C)C)c(O)c2c1C[C@H]1C[C@H]3[C@H](N(C)C)C(O)=C(C(N)=O)C(=O)[C@@]3(O)C(O)=C1C2=O showed CL renal equal to 50.2

----------
experimental-protocol: Phase 1 multiple oral dose (300, 450, 600 mg once daily x 5 days) crossover study: plasma pharmacokinetics
test-parameters: human, plasma, oral, 600 mg, time at which mean plasma concentrations peaked (Tmax), all tested dose levels (300, 450, 600 mg); Day 1 and Day 5
experimental-endpoint: Tmax (h)
Report only the number, with the unit h understood.

The reported value for CN(C)c1cc(CNCC(C)(C)C)c(O)c2c1C[C@H]1C[C@H]3[C@H](N(C)C)C(O)=C(C(N)=O)C(=O)[C@@]3(O)C(O)=C1C2=O [Omadacycline] in terms of Tmax is 2.5

----------
experimental-protocol: Phase 1 food-effect crossover study: plasma PK after single 300 mg oral dose
Type: in vivo, human
test-parameters: human, plasma, po, 300 mg, Treatment B: high-fat nondairy meal 4 h before dosing, read-out: AUC0-24, Mean (Coefficient of Variation)
experimental-endpoint: AUC(0-t) (ng·h/mL)
# number only, unit ng·h/mL dropped from output

molecule CN(C)c1cc(CNCC(C)(C)C)c(O)c2c1C[C@H]1C[C@H]3[C@H](N(C)C)C(O)=C(C(N)=O)C(=O)[C@@]3(O)C(O)=C1C2=O , AUC(0-t) observed: 6100
